# credit: ChEMBL document CHEMBL1138114

Test system: Rattus norvegicus
ASSAY_SUMMARY: AUC/dose(mg/kg) in orally dosed rat at 10 mg/kg
Assay type: ADME, organism-based, Plasma
Parameters: dose 10 mg/kg, route oral
EXPERIMENTAL_PARAMETERS: in vivo, po
OUTCOME_MEASURE: AUC/dose

O=C(O)C[C@H](Cc1nc(CCCc2ccc3c(n2)NCCC3)no1)c1ccc2c(c1)OCO2    1500 ng·h/mL/(mg/kg)
O=C(O)CC(Cc1nc(CCCc2ccc3c(n2)NCCC3)no1)c1ccc2c(c1)OCC2 (configuration not stated)    970 ng·h/mL/(mg/kg)
COc1ccc(C(CC(=O)O)Cc2nc(CCCc3ccc4c(n3)NCCC4)no2)cn1 (configuration not stated)    1910 ng·h/mL/(mg/kg)
O=C(O)C[C@H](Cc1nc(CCCCNc2cc(N3CCSCC3)ccn2)no1)c1ccc2c(c1)OCO2    60 ng·h/mL/(mg/kg)
CN1CCNc2nc(CCCc3noc(CC(CC(=O)O)c4ccc5c(c4)OCO5)n3)ccc21 (configuration not stated)    710 ng·h/mL/(mg/kg)
O=C(O)CC(Cc1nc(CCCc2ccc3c(n2)NCCC3)no1)c1cnc(C2CC2)s1 (configuration not stated)    3050 ng·h/mL/(mg/kg)

Qu. Report AUC/dose, nothing else, for this compound: O=C(O)CC(Cc1nc(CCCc2ccc3c(n2)NCCC3)no1)c1cnc2ccccc2c1 (configuration not stated)
Ans. 600 ng·h/mL/(mg/kg)

* * *

ASSAY_SYSTEM: Integrin alpha-V/beta-3 (Homo sapiens, UniProt P05106+P06756)
Sequence (P05106 27-788 limits assumed): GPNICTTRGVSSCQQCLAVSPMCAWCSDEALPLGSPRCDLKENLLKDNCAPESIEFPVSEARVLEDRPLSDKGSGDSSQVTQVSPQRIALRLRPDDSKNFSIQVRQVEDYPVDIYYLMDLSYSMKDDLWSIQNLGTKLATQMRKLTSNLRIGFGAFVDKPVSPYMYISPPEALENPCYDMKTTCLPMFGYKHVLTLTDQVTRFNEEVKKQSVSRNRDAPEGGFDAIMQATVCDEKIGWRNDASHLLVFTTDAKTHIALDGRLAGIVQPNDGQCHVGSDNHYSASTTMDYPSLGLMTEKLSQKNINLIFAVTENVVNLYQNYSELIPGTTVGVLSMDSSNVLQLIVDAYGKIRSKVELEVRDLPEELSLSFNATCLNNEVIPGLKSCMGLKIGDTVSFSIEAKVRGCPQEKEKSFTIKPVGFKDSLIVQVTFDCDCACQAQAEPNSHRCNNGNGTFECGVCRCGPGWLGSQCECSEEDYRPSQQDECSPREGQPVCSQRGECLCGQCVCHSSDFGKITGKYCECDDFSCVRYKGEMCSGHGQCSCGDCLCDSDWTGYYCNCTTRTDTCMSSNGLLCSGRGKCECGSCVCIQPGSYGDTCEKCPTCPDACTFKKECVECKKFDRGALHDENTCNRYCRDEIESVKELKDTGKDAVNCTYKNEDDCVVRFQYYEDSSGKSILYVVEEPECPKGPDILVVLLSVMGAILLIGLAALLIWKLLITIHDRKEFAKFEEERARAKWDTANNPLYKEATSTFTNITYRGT
Sequence (P06756 31-889 limits assumed): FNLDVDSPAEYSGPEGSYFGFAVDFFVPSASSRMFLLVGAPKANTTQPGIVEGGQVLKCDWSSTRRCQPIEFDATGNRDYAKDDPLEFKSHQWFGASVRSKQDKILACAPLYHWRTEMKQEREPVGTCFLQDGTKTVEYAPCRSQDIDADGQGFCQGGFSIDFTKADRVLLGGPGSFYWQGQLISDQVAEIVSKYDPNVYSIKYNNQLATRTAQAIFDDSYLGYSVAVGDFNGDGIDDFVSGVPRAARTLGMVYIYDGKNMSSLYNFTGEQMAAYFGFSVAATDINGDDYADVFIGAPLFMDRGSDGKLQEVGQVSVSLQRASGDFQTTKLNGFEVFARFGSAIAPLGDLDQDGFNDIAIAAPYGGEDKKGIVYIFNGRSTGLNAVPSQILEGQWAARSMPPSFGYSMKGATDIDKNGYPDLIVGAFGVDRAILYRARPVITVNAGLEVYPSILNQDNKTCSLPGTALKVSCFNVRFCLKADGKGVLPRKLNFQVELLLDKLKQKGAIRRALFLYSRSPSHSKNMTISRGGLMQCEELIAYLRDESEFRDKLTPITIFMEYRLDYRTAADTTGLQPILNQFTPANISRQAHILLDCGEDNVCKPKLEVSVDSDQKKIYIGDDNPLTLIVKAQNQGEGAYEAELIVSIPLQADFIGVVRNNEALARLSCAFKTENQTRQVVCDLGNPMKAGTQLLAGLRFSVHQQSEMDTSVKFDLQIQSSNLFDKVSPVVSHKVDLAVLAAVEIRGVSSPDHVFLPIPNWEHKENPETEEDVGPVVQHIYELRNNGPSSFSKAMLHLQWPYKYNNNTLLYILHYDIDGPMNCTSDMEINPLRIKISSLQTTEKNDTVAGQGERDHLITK
Sequence (P06756 891-1048 limits assumed): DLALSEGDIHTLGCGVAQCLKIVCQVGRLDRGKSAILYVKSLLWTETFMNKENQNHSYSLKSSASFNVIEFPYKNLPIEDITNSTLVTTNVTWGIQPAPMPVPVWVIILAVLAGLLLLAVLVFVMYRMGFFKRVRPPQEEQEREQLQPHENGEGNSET
ASSAY_SUMMARY: Inhibition of Integrin alphav-beta3 receptor by SPRA assay
Type: protein-complex assay
OUTCOME_MEASURE: pIC50
Interpret pIC50 as the negative base-10 log of the concentration measured in mol/L.

O=C(O)C[C@H](Cc1nc(CCCc2ccc3c(n2)NCCC3)no1)c1ccc2c(c1)OCO2    9.40
O=C(O)CCCc1nc(CCCc2ccc3c(n2)NCCC3)no1    6.80
CNc1cccc(CCCc2noc(CC(CC(=O)O)c3ccc4c(c3)OCO4)n2)n1 (stereo not given)    8.68

Qu. Report pIC50, nothing else, for this molecule: Cc1ccnc(NCCCCc2noc(C[C@@H](CC(=O)O)c3ccc4c(c3)OCO4)n2)c1
Ans. 8.70

Qu. Report pIC50, nothing else, for this molecule: O=C(O)C[C@H](Cc1nc(CCCCNc2ccccn2)no1)c1ccc2c(c1)OCO2
Ans. 8.62

Qu. Report pIC50, nothing else, for this molecule: O=C(O)CC(Cc1nc(CCCc2ccc3c(n2)NCCC3)no1)c1cnc2ccccc2c1 (stereo not given)
Ans. 9.19

Qu. Report pIC50, nothing else, for this molecule: O=C(O)CC1(Cc2nc(CCCc3ccc4c(n3)NCCC4)no2)CCCC1
Ans. 8.02

Qu. Report pIC50, nothing else, for this molecule: CC(C)(CC(=O)O)Cc1nc(CCCc2ccc3c(n2)NCCC3)no1
Ans. 7.70

Qu. Report pIC50, nothing else, for this molecule: O=C(O)CC(Cc1nc(CCCc2ccc3c(n2)NCCC3)no1)c1ccc2c(c1)OCC2 (stereo not given)
Ans. 8.68

Qu. Report pIC50, nothing else, for this molecule: COc1ccnc(NCCCCc2noc(C[C@@H](CC(=O)O)c3ccc4c(c3)OCO4)n2)c1
Ans. 8.96
